Endpoint: pIC50. System: Replicase polyprotein 1ab (Severe acute respiratory syndrome coronavirus 2). Items follow.
Schema: pIC50 number; meaning minus log10 of the concentration expressed in molar units.

Readout pIC50 for `O=C1Cc2c([nH]c3ccc(Br)cc23)-c2ccccc2N1` , test system Replicase polyprotein 1ab (Severe acute respiratory syndrome coronavirus 2), was 5.82

Form: item `O=C1Cc2c([nH]c3ccc([N+](=O)[O-])cc23)-c2ccccc2N1` ; test system Replicase polyprotein 1ab (Severe acute respiratory syndrome coronavirus 2); pIC50: 5.82

---

Experiment: in vitro
Details: human, Huh-7 cells
measured metric: CC50

Per the records, this molecule ( `CN1CCN(CCOc2cc(OC3CCOCC3)c3c(Nc4c(Cl)ccc5c4OCO5)ncnc3c2)CC1` ) has CC50 equal to > 50 µM

---

Test system: SARS-CoV-2
Assay type: functional, organism-based
Details: Severe acute respiratory syndrome coronavirus 2, A549-ACE2
pIC50 listing for selected compounds.
The scale used: pIC50 is minus the common logarithm of the concentration in molar units.

>>> numeric_value("CCc1cnn2c(NCc3ccc[n+]([O-])c3)cc(N3CCCC[C@H]3CCO)nc12")
7.49

// next item, pIC50 requested
Lab note: measured pIC50 of `Cc1cccc(/C=N/Nc2cc(N3CCOCC3)nc(OCCc3ccccn3)n2)c1` was 8.15

---

IC50 overview
System: SARS-CoV-2
Type: functional, organism-based, Vero E6
Details: Severe acute respiratory syndrome coronavirus 2, Vero C1008, 72 h
Field format: number, assumed µM, no unit text.

Guide cases for IC50, answers given:
>>> numeric_value("CNS(=O)(=O)Nc1nccc(Cc2c(C)c3ccc(Oc4ncccn4)cc3oc2=O)c1F [AVUTOMETINIB]")
0.6
>>> numeric_value("NC(=O)N1CCC(CC(=O)N2CCC([C@H]3c4ncc(Br)cc4CCc4cc(Cl)cc(Br)c43)CC2)CC1 [LONAFARNIB]")
4.99
>>> numeric_value("C=CC(=O)Nc1cc(Nc2nccc(-c3cn(C)c4ccccc34)n2)c(OC)cc1N(C)CCN(C)C [OSIMERTINIB]")
3.98

Reported IC50 for COc1ncc(-c2ccc3nccc(-c4ccnnc4)c3c2)cc1NS(=O)(=O)c1ccc(F)cc1F [OMIPALISIB] was 0.014
